readoutName: melting point

Prompt: What value of melting point has been recorded for this entry: CN1CCN(c2cc3c(cc2F)c(=O)c(C(=O)O)cn3C2COC2)CC1
Completion: 178 to 180 °C

New cases:
Prompt: Look up melting point for this compound: CS(=O)(=O)c1ccc(-n2nc(CNC(=O)Nc3cccc(C(F)(F)F)c3)cc2-c2ccccc2)cc1
Completion: 108 to 113 °C

Prompt: Can you check O=S(=O)(NCc1ccccc1)c1cccc(-c2cc(-c3nc(-c4ccc(C(F)(F)F)cc4)cc(C(F)(F)F)n3)ccn2)c1 next?
Completion: 202 °C

---

readoutName: melting point

Prompt: Which value of melting point has been reported for CCCc1cc(OC)c(OC)cc1Cc1cnc(N)nc1N in the records?
Completion: 166 to 167 °C

---

Quick list: melting point per entry.

Prompt: Entry under review: Cc1cc(C)n(CC(C)C)c(=O)c1C(=O)O . Reported melting point?
Completion: 93 to 95 °C

Prompt: Next entry: CCOC(=O)C1CN(S(=O)(=O)c2ccc3cc(Br)ccc3c2)CCN1C(=O)C1CCN(c2ccncc2)CC1 (centres undefined)
Completion: 117 to 121 °C

Prompt: Let us now turn to O=C(Nc1ccc(C(=O)N2Cc3cccn3Cc3ccccc32)cc1)c1cccnc1Oc1ccc(Cl)cc1
Completion: 211 to 212 °C

Prompt: Item: CC(O)C(C)(C)NC(=O)[C@@H]1CCCN1C(=O)[C@@H](O)[C@H](Cc1ccccc1)NC(=O)[C@H](CC(N)=O)NC(=O)OCc1ccccc1 (some centres undefined)
Completion: 102 to 104 °C

Prompt: One more compound: Cc1ccc(N)cc1Nc1nccc(-c2cncc(Br)c2)n1
Completion: 130 °C

---
Prompt: Fill blank: measured melting point of the compound COc1cc2cc3c(nc2cc1OC)CCc1cc(Cl)ccc1-3 is ____.
Completion: 197 °C

Prompt: Can you check CCOC(=O)/C=C/C=Cc1ccc(OCCc2nc(-c3ccccc3)oc2C)cc1 next?
Completion: 102 to 103 °C

Prompt: One more compound: Cc1ccc2c(c1)S(=O)(=O)N=CN2C1CC1
Completion: 192 to 195 °C

Prompt: Field entry: Cn1nc(C(F)F)cc1O
Completion: 133 °C

---

readoutName: melting point

Prompt: Consider the compound shown here: CN(C)c1ccc(-c2cc(-c3ccnc4c(C(=O)c5cccs5)cnn34)ccc2F)cc1 What is its recorded melting point?
Completion: 219 to 221 °C

Prompt: Now this one: COC(=O)C(CNC(C)=O)C1CCC(c2ccccc2)CC1 (stereo not given)
Completion: 75 to 80 °C

Prompt: Then this compound: CN(C)C(=O)N[C@H]1CC[C@H](CCN2CCN(c3ccc(O)c(Cl)c3Cl)CC2)CC1
Completion: 278 to 280 °C

***
Prompt: Any idea what melting point was measured for NC(=O)COc1ccc2c(-c3ccccc3F)noc2c1Cl ?
Completion: 172 °C

Prompt: Continue with CCc1nnc(N2CCN(c3ccc(N4CC(CNC(C)=O)OC4=O)cc3F)CC2)s1 (stereo not given)
Completion: 237 to 238 °C

Prompt: And then O=C(O)CN(C(=O)CCc1nc2c(F)c(F)cc(F)c2s1)c1ccccc1 , what is it?
Completion: 121 to 124 °C

Prompt: What do we get for Cc1cc(C)n(-c2nccc(NC3CCCCC3)n2)n1 ?
Completion: 144 to 147 °C

Prompt: And what about the compound COc1ccc([C@@H]2CCc3cc(OC)ccc3[C@@H]2CCCO)cc1 (relative stereo) ?
Completion: 99 °C

Prompt: Next compound up: Cc1c(C(=O)NC2CCN(Cc3ccccc3)CC2)c2cc(F)ccc2n1C
Completion: 169 to 172 °C

Prompt: Another compound to check: O=C1C2=C(SCCO2)C(=O)N1c1ccc(Cl)cn1
Completion: 152 °C

---

Each entry below carries its recorded melting point.

Record excerpt, results attached:
Prompt: Query: melting point; subject: COc1ccc(C2CNCc3ccc(C)cc32)cc1OC (centres undefined)
Completion: 94 to 96 °C

Prompt: Try the molecule CCCCC1(O)C2=NCC3(CCCCC3)CN2c2ccccc21 (centres undefined)
Completion: 192 to 195 °C

Prompt: Thanks! And CC(C)(C)c1ccnc(Oc2ccc(CCNc3ncnc4nccnc34)cc2)c1 ?
Completion: 156 to 157 °C

Others:
Prompt: Query: melting point; subject: CCn1c(-c2ccc(OC)c(OC)c2)cc(=S)n(C)c1=O
Completion: 147 to 150 °C

Prompt: Also check COc1cc2cc(C(=O)N3CC(CCl)c4c3cc(NCCNC(=O)OC(C)(C)C)c3ccccc43)[nH]c2c(OC)c1OC (centres undefined)
Completion: 110 to 115 °C

Prompt: Another molecule: O=C(OCc1cc(-c2ccc(F)cc2F)ccc1O)c1cc(O)c2c(c1)C(=O)c1cccc(O)c1C2=O
Completion: 128 to 132 °C

---

Readings of melting point for the listed molecules

Here's what some known entries look like.
Prompt: Would you kindly share the measured melting point for O=C(NC1CCN(CCC2CCCCC2)CC1)c1ccccc1 ?
Completion: 174 to 175 °C

Prompt: Same question for Nc1cccc(C2=NCCO2)c1 please.
Completion: 126 to 128 °C

Prompt: Repeat with CC(=NC1CCCCC1)N(C)C=Nc1ccc(C)cc1C
Completion: 37 to 39 °C

Prompt: Then this molecule: CCOP(=O)(Cc1ccc2cc(CP(=O)(OCC)OCC)ccc2c1)OCC
Completion: 151 to 153 °C

Further cases:
Prompt: Query (molecule): Nc1ccc2c(c1)ncn2-c1ccccc1 ; field requested: melting point
Completion: 272 to 274 °C

---

Below, each of the compounds is paired with its reported melting point value.

Some solved cases for reference:
Prompt: Give the measured melting point of CSc1nc(N)c(O)c(=O)[nH]1 .
Completion: 243 to 245 °C

Prompt: Further, for CCOC(=O)C=Cc1ccn(S(=O)(=O)c2ccc3nc[nH]c(=O)c3c2)c1 ?
Completion: 207 to 210 °C

Prompt: How about this compound: COCCNC(=O)c1nc2cc(NC(=O)c3c(C(=O)N4CCC4)cnn3C)ccn2n1
Completion: 159 to 161 °C

Prompt: How about this compound: COc1cc(CCC(=O)C2=C(Cl)CCC2)cc(OS(=O)(=O)c2ccc(C)cc2)c1OC
Completion: 73 °C

Prompt: Then what about the compound Cc1nc2c(OCc3c(Cl)ccc(S(=O)(=O)N4CCC[C@H]4C(=O)NCCCNC(=O)c4ccc(C#N)cc4)c3Cl)cccn2c1Cl ?
Completion: 115 °C

***
Prompt: Query: melting point; subject: O=C(Nc1cccc(S(=O)(=O)NC2CC2)c1)c1cnn2c(C(F)F)cc(-c3ccc(Cl)c(Cl)c3)nc12
Completion: 254 °C

Prompt: What would you report for Cc1cc(SC2=C(O)CC(CCc3ccc(O)cc3)(c3ccccc3)OC2=O)c(C(C)(C)C)cc1CO (centres undefined) ?
Completion: 199 to 201 °C

Prompt: How about this compound: O=C(c1ccc(O)cc1)c1c(F)c(F)c(F)c(F)c1F
Completion: 138 to 140 °C

---

Quick list: melting point per entry.

Examples with their reported melting point follow.
Prompt: Query: melting point; subject: N#CC(C#N)=C1Sc2nc3ccc(C#N)cc3nc2S1
Completion: 278 to 281 °C

Prompt: // repeat for O=C(O)COCCOc1c(-c2cccc(C(F)(F)F)c2)cc(C(=O)NCCCCCCc2ccccc2)cc1-c1cccc(C(F)(F)F)c1 and report
Completion: 74.7 to 75.9 °C

Prompt: Likewise for CS(=O)(=O)c1ccc(-c2nc(C(F)(F)F)nc(N=[N+]=[N-])c2-c2ccc(F)cc2)cc1 ?
Completion: 285 to 288 °C

Prompt: How about CC(=O)c1ccc(-c2ccc(F)cc2F)cc1 ?
Completion: 82.5 to 83.5 °C

Prompt: Now give it for CC1(C)OC(=O)Nc2ccc(-c3cccc(C#CC#N)c3)cc21 too.
Completion: 212 to 213 °C

Prompt: Query COc1cc(Cc2cnc(N)nc2N)cc(C=Cc2ccccc2)c1OC next
Completion: 226 °C

Now examine the next entry.
Prompt: Data request, read-out melting point, for Cn1ncc(N2CCCCC2)c(-c2ccccc2C=NO)c1=O
Completion: 184 to 185 °C

---

readoutName: melting point

Prompt: Need melting point of Cc1c(OC(F)F)ccnc1CSc1nc2ccc(OC(F)F)cc2[nH]1 , thanks.
Completion: 181 to 182 °C

Prompt: What do we get for O=C(O)CCn1c(=O)c2ccccc2n(CCCN2CCC(OC(c3ccccc3)c3ccccc3)CC2)c1=O ?
Completion: 150 to 151 °C

Prompt: Same read-out for CC#CC(=O)Nc1cccc(-c2ccnc3c(C(=O)c4cccs4)cnn23)c1 ?
Completion: 202 to 203 °C

Prompt: What do you get for O=c1c2c(-c3ccc(F)cc3)n[nH]c2c2cccnc2n1-c1ccccc1 ?
Completion: 300 °C

Prompt: COc1ccc(C(=O)Nc2ccc(C(=O)O)cc2)cc1C1(C)CCCCC1 , same question.
Completion: 230 to 231 °C

Prompt: Input COc1cc(Cl)c2ncccc2c1
Completion: 74 to 75 °C

Next:
Prompt: Looking for the measured melting point of CCn1c(=O)ccn(-c2ccc([N+](=O)[O-])cc2)c1=O , can you help?
Completion: 182 °C

Prompt: Also check COc1ccccc1N1CCN(c2nc3cccc4c3n2CCC4)CC1
Completion: 199 to 201 °C

Prompt: Now this one: CCCCCCCCCCCCCCCCOC(=O)c1cc(C(=O)OCCCCCCCCCCCCCCCC)cc(S(=O)O)c1
Completion: 63 to 65 °C

Prompt: Please give the result for N#Cc1cc(C(=O)O)ccc1Cl too.
Completion: 180 °C

Reference source: a melting point compilation (Tetko et al.; mined from patent text by program, amines drawn as free bases though some values may be those of a salt)
